Assay: Pharmacokinetic measurements of H3B-6527 capsules in patients (trial NCT02834780), plasma LC-MS/MS
Type: in vivo, human
Settings: human, plasma, oral, 1400 mg, 1400 mg QD, fed, Day 1; Table 6, actual times after QC; read-out: Cmax, geometric mean (CV%)
quantity-kind: Cmax (ng/mL)
The reply should contain only the number, in ng/mL.

// field: Cmax; key: C=CC(=O)Nc1cc(N2CCN(CC)CC2)ccc1Nc1cc(N(C)C(=O)Nc2c(Cl)c(OC)cc(OC)c2Cl)ncn1 ; value = 904

---

Assay: Pharmacokinetic measurements of H3B-6527 capsules in patients (trial NCT02834780), plasma LC-MS/MS
Format: in vivo, human
Conditions: human, plasma, oral, 500 mg, 500 mg BID, fed, Day 1; Table 5, nominal times; read-out: Cmax, geometric mean (CV%)
quantity-kind: Cmax (ng/mL)
Number only, in ng/mL; omit the unit.

Per the record, C=CC(=O)Nc1cc(N2CCN(CC)CC2)ccc1Nc1cc(N(C)C(=O)Nc2c(Cl)c(OC)cc(OC)c2Cl)ncn1 has Cmax of 255

---

Assay: Pharmacokinetic measurements of H3B-6527 capsules in patients (trial NCT02834780), plasma LC-MS/MS
Assay type: in vivo, human
Conditions: human, plasma, oral, 600 mg, 600 mg QD, fasted, Day 1; Table 6, actual times after QC; read-out: Tmax, median (min-max)
quantity-kind: Tmax (h)
Report the figure in h without appending any unit label.

The compound C=CC(=O)Nc1cc(N2CCN(CC)CC2)ccc1Nc1cc(N(C)C(=O)Nc2c(Cl)c(OC)cc(OC)c2Cl)ncn1 showed Tmax equal to 1

---

Test: Pharmacokinetic measurements of H3B-6527 capsules in patients (trial NCT02834780), plasma LC-MS/MS
Assay type: in vivo, human
Settings: human, plasma, oral, 1000 mg, 1000 mg QD, fed, Day 1; Table 6, actual times after QC; read-out: Cmax, geometric mean (CV%)
quantity-kind: Cmax (ng/mL)
Entry rule: numbers only, all in ng/mL.

For reference, reported Cmax for C=CC(=O)Nc1cc(N2CCN(CC)CC2)ccc1Nc1cc(N(C)C(=O)Nc2c(Cl)c(OC)cc(OC)c2Cl)ncn1 [H3B-6527] stands at 182

---

Test: Pharmacokinetic measurements of H3B-6527 capsules in patients (trial NCT02834780), plasma LC-MS/MS
Format: in vivo, human
Conditions: human, plasma, oral, 1400 mg, 1400 mg QD, fasted, Day 8; Table 5, nominal times; read-out: Half-life, geometric mean (CV%) (converted)
quantity-kind: half-life
Value and unit, in that order.

Reported half-life ( C=CC(=O)Nc1cc(N2CCN(CC)CC2)ccc1Nc1cc(N(C)C(=O)Nc2c(Cl)c(OC)cc(OC)c2Cl)ncn1 ) = 294 min

---

Assay: Pharmacokinetic measurements of H3B-6527 capsules in patients (trial NCT02834780), plasma LC-MS/MS
Type: in vivo, human
Settings: human, plasma, oral, 1400 mg, 1400 mg QD, fed, Day 8; Table 6, actual times after QC; read-out: Half-life, geometric mean (CV%) (converted)
quantity-kind: half-life (h)
The response must be a number in h with no trailing unit.

Lab note: C=CC(=O)Nc1cc(N2CCN(CC)CC2)ccc1Nc1cc(N(C)C(=O)Nc2c(Cl)c(OC)cc(OC)c2Cl)ncn1 [H3B-6527] gave half-life of 4.75
